# Test system: SN12C renal
# ASSAY SUMMARY: NCI tumour cell line growth inhibition, 48 h
VALUE TYPE: TGI (µM)
Quick reminder: number only, in µM, skip the unit.

Qu. Record lookup: for SN12C renal, what TGI belongs to O=C(COC(=O)c1ccccc1)c1ccc(Br)cc1 ?
Ans. 29.4

Qu. Continue with CCOC(=O)C1(Cc2ccccc2)CCN(C(=O)c2ccccc2)C2C1C2(Cl)Cl (stereo not given)
Ans. 32.4

Qu. Continue with O=[N+]([O-])C(=C/C1CCCCC1)/C(=C\C1CCCCC1)[N+](=O)[O-]
Ans. 11.5

Qu. Continue with Cc1nc(NC(=S)Nc2ccc(F)cc2)sc1C(=O)NNC(=S)Nc1ccc(F)cc1
Ans. 32.1

Qu. Continue with O=C(O)c1cc2c(cc1S(=O)(=O)O)C1C(C3C2C2(Cl)C(Cl)=C(Cl)C3(Cl)C2(Cl)Cl)C2(Cl)C(Cl)=C(Cl)C1(Cl)C2(Cl)Cl (stereo not given)
Ans. 46.4
